Split Luciferase Assay %Lum Set 2 for assorted compounds
- tgt: FGF14:Nav1.6 C-tail complex (Homo sapiens, UniProt Q92915+Q9UQD0)
- Construct: polymerase chain reaction (PCR) amplification of the FGF14 open reading frame (nt 1–855); C-terminal fragment of Nav1.6 (amino acids 1763–1976) fused with CD4ΔC-tail (amino acids 1–395); expressed in transfected cells
- Sequence (Q92915 1-252 isoform Q92915-2): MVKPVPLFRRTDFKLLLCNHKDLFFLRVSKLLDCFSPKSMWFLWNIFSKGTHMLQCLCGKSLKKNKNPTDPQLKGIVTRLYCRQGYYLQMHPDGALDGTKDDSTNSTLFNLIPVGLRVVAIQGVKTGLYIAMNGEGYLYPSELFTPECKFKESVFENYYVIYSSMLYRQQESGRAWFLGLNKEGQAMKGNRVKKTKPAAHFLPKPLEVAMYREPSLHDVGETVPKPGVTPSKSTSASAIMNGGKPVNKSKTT
- Sequence (Q9UQD0 1763-1976 limits assumed): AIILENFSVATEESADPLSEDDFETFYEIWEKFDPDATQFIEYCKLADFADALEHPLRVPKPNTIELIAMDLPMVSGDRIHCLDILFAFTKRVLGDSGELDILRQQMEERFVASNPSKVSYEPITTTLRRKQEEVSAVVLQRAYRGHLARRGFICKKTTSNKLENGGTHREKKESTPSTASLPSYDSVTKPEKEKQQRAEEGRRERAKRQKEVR
- assay_name: Split-luciferase complementation assay (LCA) in Clone V double stable HEK293 cells
- Format: cell-based
- conditions_used: CC_NCI screening, biological replicate Set 2; normalized to on-plate 0.3% DMSO controls (n=16 per plate)
Where a name gives a salt, the structure may show the parent alone.

- compound: "CC(=O)O[C@H]1C(=O)[C@@]2(C)[C@H]([C@H](OC(=O)c3ccccc3)[C@]3(O)C[C@H](OC(=O)[C@H](O)[C@@H](NC(=O)c4ccccc4)c4ccccc4)C(C)=C1C3(C)C)[C@]1(OC(C)=O)CO[C@@H]1C[C@@H]2O"
  units_of_measure: "%"
  Split Luciferase Assay %Lum Set 2: 94.67
- compound: "N#Cc1c(O)c2c(-c3ccc(-c4ccccc4O)cc3)csc2[nH]c1=O"
  units_of_measure: "%"
  Split Luciferase Assay %Lum Set 2: 112.35
- compound: "NS(=O)(=O)c1nn2cc(-c3ccccc3)nc2s1"
  units_of_measure: "%"
  Split Luciferase Assay %Lum Set 2: 113.39
- compound: "CC(C)Cn1cnc2c(N)nc3ccccc3c21"
  units_of_measure: "%"
  Split Luciferase Assay %Lum Set 2: 112.35
- compound: "Nc1ccn([C@@H]2O[C@H](CO)[C@@H](O)[C@@H]2O)c(=O)n1 [Cytarabine hydrochloride]"
  units_of_measure: "%"
  Split Luciferase Assay %Lum Set 2: 101.95
- compound: "CS(=O)(=O)CCNCc1ccc(-c2ccc3ncnc(Nc4ccc(OCc5cccc(F)c5)c(Cl)c4)c3c2)o1"
  units_of_measure: "%"
  Split Luciferase Assay %Lum Set 2: 76.98
- compound: "CN(C)/N=N/c1[nH]cnc1C(N)=O"
  units_of_measure: "%"
  Split Luciferase Assay %Lum Set 2: 133.16
- compound: "Cc1nc2c(c(=O)[nH]1)CSCC2"
  units_of_measure: "%"
  Split Luciferase Assay %Lum Set 2: 96.75

---

- tgt: FGF14:Nav1.6 C-tail complex (Homo sapiens, UniProt Q92915+Q9UQD0)
- Construct: polymerase chain reaction (PCR) amplification of the FGF14 open reading frame (nt 1–855); C-terminal fragment of Nav1.6 (amino acids 1763–1976) fused with CD4ΔC-tail (amino acids 1–395); expressed in transfected cells
- assay_name: Split-luciferase complementation assay (LCA) in Clone V double stable HEK293 cells
- Format: cell-based
- conditions_used: CC_NCI screening; LCA, biological replicate Set 1; normalized to on-plate 0.3% DMSO controls
Counter-ions that a name gives are not always drawn.
Decide using Split Luciferase Assay Z-score Set 1: a value greater than or equal to 0.4 is True, a smaller one is False.

- molecule: "OCC1OC(O)CC(O)C1O (stereo not shown) [Compound 2DG]"
  tgt: "FGF14:Nav1.6 C-tail complex (Homo sapiens, UniProt Q92915+Q9UQD0)"
  class: "False"
- molecule: "CNC(=O)c1cc(Oc2ccc(NC(=O)Nc3ccc(Cl)c(C(F)(F)F)c3)c(F)c2)ccn1 [Regorafenib]"
  tgt: "FGF14:Nav1.6 C-tail complex (Homo sapiens, UniProt Q92915+Q9UQD0)"
  class: "False"
- molecule: "CC[C@]1(O)C[C@H]2CN(CCc3c([nH]c4ccccc34)[C@@](C(=O)OC)(c3cc4c(cc3OC)N(C=O)[C@H]3[C@@](O)(C(=O)OC)[C@H](OC(C)=O)[C@]5(CC)C=CCN6CC[C@]43[C@@H]65)C2)C1 [Vincristine sulfate]"
  tgt: "FGF14:Nav1.6 C-tail complex (Homo sapiens, UniProt Q92915+Q9UQD0)"
  class: "True"
- molecule: "O=C(NOCC1CC1)c1ccc(F)c(F)c1Nc1ccc(I)cc1Cl [CI 1040, reference compound]"
  tgt: "FGF14:Nav1.6 C-tail complex (Homo sapiens, UniProt Q92915+Q9UQD0)"
  class: "False"
- molecule: "CCN(CC)CCNC(=O)c1c(C)[nH]c(/C=C2\\C(=O)Nc3ccc(F)cc32)c1C [Sunitinib]"
  tgt: "FGF14:Nav1.6 C-tail complex (Homo sapiens, UniProt Q92915+Q9UQD0)"
  class: "False"
- molecule: "c1cc(CN2CCCNCCNCCCNCC2)ccc1CN1CCCNCCNCCCNCC1 [Plerixafor]"
  tgt: "FGF14:Nav1.6 C-tail complex (Homo sapiens, UniProt Q92915+Q9UQD0)"
  class: "True"
- molecule: "Cl.Cn1c(CCCC(=O)O)nc2cc(N(CCCl)CCCl)ccc21 [Bendamustine hydrochloride]"
  tgt: "FGF14:Nav1.6 C-tail complex (Homo sapiens, UniProt Q92915+Q9UQD0)"
  class: "True"

---

- tgt: full-length P. pyralis luciferase (Photinus pyralis, UniProt P08659, K549A/L550V/N119G/N50D/S548I)
- Sequence (P08659 whole entry N50D/N119G/S548I/K549A/L550V, looked up): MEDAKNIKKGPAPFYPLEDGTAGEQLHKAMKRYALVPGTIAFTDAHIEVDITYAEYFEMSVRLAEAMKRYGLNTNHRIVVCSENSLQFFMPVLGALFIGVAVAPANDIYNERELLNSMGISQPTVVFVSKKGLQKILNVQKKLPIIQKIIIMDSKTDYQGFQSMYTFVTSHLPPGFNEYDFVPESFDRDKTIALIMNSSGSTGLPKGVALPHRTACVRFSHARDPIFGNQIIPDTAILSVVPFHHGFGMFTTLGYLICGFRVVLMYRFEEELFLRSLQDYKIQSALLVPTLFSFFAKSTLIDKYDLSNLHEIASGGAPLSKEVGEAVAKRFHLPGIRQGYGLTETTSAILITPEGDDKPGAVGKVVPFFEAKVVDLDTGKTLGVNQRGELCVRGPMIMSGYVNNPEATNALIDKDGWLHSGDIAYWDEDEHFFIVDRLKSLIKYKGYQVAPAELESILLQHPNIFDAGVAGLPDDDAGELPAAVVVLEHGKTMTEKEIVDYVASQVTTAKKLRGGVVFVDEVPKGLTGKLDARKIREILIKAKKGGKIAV
- Type: cell-based
- conditions_used: CC_NCI screening; normalized to on-plate 0.3% DMSO controls
metric: Luciferase Assay % Lum (full-length luciferase counter-screen) (%)

- structure_smiles_string: "O=c1cc(N2CCOCC2)oc2c(-c3ccccc3)cccc12"
  units_of_measure: "%"
  measured_number: 80.46
- structure_smiles_string: "O=C(NCCCNc1nc(Nc2cccc(NC(=O)N3CCCC3)c2)ncc1I)c1cccs1"
  units_of_measure: "%"
  measured_number: 70.68
- structure_smiles_string: "S=P(N1CC1)(N1CC1)N1CC1"
  units_of_measure: "%"
  measured_number: 95.81
- structure_smiles_string: "NC(=O)c1ccc2[nH]ccc2c1"
  units_of_measure: "%"
  measured_number: 109.31
- structure_smiles_string: "COc1cc2c(Nc3ccc(NC(=O)c4ccccc4)cc3)ncnc2cc1OCCCN1CCOCC1"
  units_of_measure: "%"
  measured_number: 98.24

---

- tgt: FGF14:Nav1.6 C-tail complex (Homo sapiens, UniProt Q92915+Q9UQD0)
- Construct: polymerase chain reaction (PCR) amplification of the FGF14 open reading frame (nt 1–855); C-terminal fragment of Nav1.6 (amino acids 1763–1976) fused with CD4ΔC-tail (amino acids 1–395); expressed in transfected cells
- assay_name: Split-luciferase complementation assay (LCA) in Clone V double stable HEK293 cells
- Assay type: cell-based
- conditions_used: cell density 2 × 10^4 cells per 384-well; 8 concentrations 0.625-30 µM; read-out: IC50
pIC50: −log10 of the molar value.
metric: pIC50

- compound: "O=[N+]([O-])/C=C/c1ccc2c(c1)OCO2 [MNS, reference compound]"
  measured_number: 5.13

---

- tgt: FGF14:Nav1.6 C-tail complex (Homo sapiens, UniProt Q92915+Q9UQD0)
- Construct: polymerase chain reaction (PCR) amplification of the FGF14 open reading frame (nt 1–855); C-terminal fragment of Nav1.6 (amino acids 1763–1976) fused with CD4ΔC-tail (amino acids 1–395); expressed in transfected cells
- assay_name: Split-luciferase complementation assay (LCA) in Clone V double stable HEK293 cells
- Type: cell-based
- conditions_used: estimated; 8-point dose response 0.25-30 µM, n = 4 per concentration; library compounds; read-out: IC50
metric: IC50 (µM)

- compound: "Cc1ccc([N+](=O)[O-])cc1S(=O)(=O)N(C)/N=C/c1cnc2ccc(Br)cn12 [PIK 75, reference compound]"
  units_of_measure: "µM"
  measured_number: 1.63
- compound: "C[C@@H](Oc1cc(-c2cnn(C3CCNCC3)c2)cnc1N)c1c(Cl)ccc(F)c1Cl [Crizotinib, reference compound]"
  units_of_measure: "µM"
  measured_number: 12.2
- compound: "CNC(=O)c1cc(Oc2ccc(NC(=O)Nc3ccc(Cl)c(C(F)(F)F)c3)cc2)ccn1 [Sorafenib, reference compound]"
  units_of_measure: "µM"
  measured_number: 3.98
- compound: "CN(C)C[C@@H]1CCn2cc(c3ccccc32)C2=C(C(=O)NC2=O)c2cn(c3ccccc23)CCO1 [LY 333531, reference compound]"
  units_of_measure: "µM"
  measured_number: 12.2
- compound: "CCCS(=O)(=O)Nc1ccc(F)c(C(=O)c2c[nH]c3ncc(Cl)cc23)c1F [PLX4720, reference compound]"
  units_of_measure: "µM"
  measured_number: 2.14
- compound: "O=S(=O)(NCCNC/C=C/c1ccc(Br)cc1)c1cccc2cnccc12 [H-89, reference compound]"
  units_of_measure: "µM"
  measured_number: 12.2
- compound: "O=C(NOCC1CC1)c1ccc(F)c(F)c1Nc1ccc(I)cc1Cl [CI 1040, reference compound]"
  units_of_measure: "µM"
  measured_number: 14.8
- compound: "CCn1c(-c2nonc2N)nc2cnc(Oc3cccc(NC(=O)c4ccc(OCCN5CCOCC5)cc4)c3)cc21 [GSK 269962 A, reference compound]"
  units_of_measure: "µM"
  measured_number: 24.7
- compound: "O=C(Nc1cccc(Nc2ncc(Br)c(NCCc3cnc[nH]3)n2)c1)N1CCCC1 [BX 912, reference compound]"
  units_of_measure: "µM"
  measured_number: 9.23
